These entries and their values trace back to paper PMC11106739.

# System: A. baumannii HUMC1
# Assay type: cell-based, Acinetobacter baumannii
# CONDITION SET: HUMC1, 20 h
Where a SMILES comes first, the peptide text is derived from it. [ ]: non-standard residue; d: D form. The star is where a group is joined. d(aIle) = CC[C@H](C)[C@@H](N)C(=O)O; dDab = NCC[C@@H](N)C(=O)O; Octanoyl = CCCCCCCC(=O)*; Dab = NCC[C@H](N)C(=O)O
Catalogue of MIC values

- MOLECULE: "CCCCCCCC(=O)N[C@@H](C(=O)N[C@H](CCN)C(=O)NCC(=O)N[C@H](CO)C(=O)N[C@H](Cc1c[nH]c2ccccc12)C(=O)N[C@@H](CO)C(=O)N[C@@H](CCN)C(=O)N[C@H](CCN)C(=O)N[C@@H](CO)C(=O)N[C@@H](CCC(=O)O)C(=O)N[C@H](C(=O)N[C@@H](C(=O)N[C@@H](C)C(=O)O)[C@@H](C)CC)C(C)C)C(C)C [Oct-Ser9] (Octanoyl-[dV][dDab]G[dS][dW]S[Dab][dDab]SEV[d(aIle)]A-OH)"
  UNITS SYMBOL: "µg/mL"
  CENSOR SYMBOL: ">"
  MIC: 64
- MOLECULE: "CCCCCCCC(=O)N[C@H](Cc1ccccc1)C(=O)N[C@H](CCN)C(=O)N[C@@H](C(=O)N[C@H](CO)C(=O)N[C@H](Cc1c[nH]c2ccccc12)C(=O)N[C@@H](CO)C(=O)N[C@@H](CO)C(=O)N[C@H](CCN)C(=O)N[C@@H](Cc1c[nH]c2ccccc12)C(=O)N[C@@H](CO)C(=O)N[C@H](C(=O)N[C@@H](C(=O)N[C@@H](CCN)C(=O)O)[C@@H](C)CC)C(C)C)[C@H](C)CC [Oct-TriD] (Octanoyl-[dF][dDab][dI][dS][dW]SS[dDab]WSV[d(aIle)][Dab]-OH)"
  UNITS SYMBOL: "µg/mL"
  CENSOR SYMBOL: "="
  MIC: 16
- MOLECULE: "CCCCCCCC(=O)N[C@@H](C(=O)N[C@H](CCN)C(=O)NCC(=O)N[C@H](CO)C(=O)N[C@H](Cc1c[nH]c2ccccc12)C(=O)N[C@@H](CO)C(=O)N[C@@H](CCN)C(=O)N[C@H](CCN)C(=O)N[C@H](C(=O)N[C@@H](CCC(=O)O)C(=O)N[C@H](C(=O)N[C@@H](C(=O)N[C@@H](C)C(=O)O)[C@@H](C)CC)C(C)C)[C@@H](C)CC)C(C)C [Oct-Ile9] (Octanoyl-[dV][dDab]G[dS][dW]S[Dab][dDab]IEV[d(aIle)]A-OH)"
  UNITS SYMBOL: "µg/mL"
  CENSOR SYMBOL: "="
  MIC: 16
- MOLECULE: "CCCCCCCC(=O)N[C@@H](C(=O)N[C@H](CCN)C(=O)NCC(=O)N[C@H](CO)C(=O)N[C@H](Cc1c[nH]c2ccccc12)C(=O)N[C@@H](CO)C(=O)N[C@@H](CCN)C(=O)N[C@H](CCN)C(=O)N[C@H](C(=O)N[C@@H](CCC(=O)O)C(=O)N[C@H](C(=O)N[C@@H](C(=O)N[C@@H](C)C(=O)O)[C@@H](C)CC)C(C)C)C(C)C)C(C)C [Oct-Val9] (Octanoyl-[dV][dDab]G[dS][dW]S[Dab][dDab]VEV[d(aIle)]A-OH)"
  UNITS SYMBOL: "µg/mL"
  CENSOR SYMBOL: "="
  MIC: 32
- MOLECULE: "CCCCCCCC(=O)N[C@@H](C(=O)N[C@H](CCN)C(=O)NCC(=O)N[C@H](CO)C(=O)N[C@H](Cc1c[nH]c2ccccc12)C(=O)N[C@@H](CO)C(=O)N[C@@H](CCN)C(=O)N[C@H](CCN)C(=O)N[C@@H](C)C(=O)N[C@@H](CCC(=O)O)C(=O)N[C@H](C(=O)N[C@@H](C(=O)N[C@@H](C)C(=O)O)[C@@H](C)CC)C(C)C)C(C)C [Oct-Ala9] (Octanoyl-[dV][dDab]G[dS][dW]S[Dab][dDab]AEV[d(aIle)]A-OH)"
  UNITS SYMBOL: "µg/mL"
  CENSOR SYMBOL: ">"
  MIC: 64
